Tested on: PPARg DBDmut:RXRa IVT, anti-PPARg (DBD mutation: PPARg1 K132A/R137A, NR concentration 270 nM, RXRa partner concentration 90 nM)
PROTOCOL SUMMARY: PBM binding z-score (relative to random genomic background probes); higher = stronger binding; sequences stand for … in GC…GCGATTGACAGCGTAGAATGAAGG
Listed here are sequences together with their documented PBM binding z-score.
Reply: number alone, nothing else.

Example results:
                     sequence_content  result_number
0  CGAACTAGATCATCCAGGACAGTGAATACATTGA          0.762
1  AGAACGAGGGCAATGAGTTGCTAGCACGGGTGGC          0.736
2  CCTATTAGTTGACCATAAGGGCAAGCGAAGCTCG        -0.0196
3  TGTCAAAGTTCAAAGGTAATGTAAGTATCCACAC           1.92

What the record says about GATACAGGGACAAGGCCAGAGTACGCGTATTGAT : PBM binding z-score is -0.754

PBM binding z-score recorded for this sequence, TCATATAGGTAAAAGTTGAAAGTCGGTGTGGTAA , is 0.876

###

System: PPARa:RXRa (NR concentration 270 nM, RXRa partner concentration 90 nM)
PROTOCOL SUMMARY: PBM binding z-score (relative to random genomic background probes); higher = stronger binding; sequences stand for … in GC…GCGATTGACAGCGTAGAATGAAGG
Classify by measured PBM binding z-score: Y if it is equal to or exceeds 4, N if it is smaller.

Would you please look over these solved cases?
>>> print(df.to_string())
                     sequence_content  class
0  ATCTCTAGCTAAAGATAGTTCAGTGAATGCAAAT      N
1  ATCGAAAGGTCGAAGGTGAGTATACCCACCCGAA      Y
2  CAAACTAGGTCAAAGTTCAAAGTCGAGCCAACCA      Y
3  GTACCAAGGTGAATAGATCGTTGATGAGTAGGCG      N
4  TCTCGGAGGACGCGAAAGGTCAGAGCTCGACATC      N
5  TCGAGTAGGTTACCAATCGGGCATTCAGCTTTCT      N
6  CGAACTAGGTCATCCAGGACAGTGATTACATTGA      Y
7  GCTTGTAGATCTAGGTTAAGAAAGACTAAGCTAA      N
8  TCTTGTAGATCAATAGAGGTTAAGACAGTGCGCT      N
9  ATATGTAGGTTAAGGGTCATTCACGTTGGTTCGC      Y

Is it the case that TCTAGCAGGCCAGAGGGTCACGCAAGAGGTACGG has PBM binding z-score reaching or exceeding 4?
N

Does PBM binding z-score meet or surpass 4 for CCTACTGGGCCATGCAGAGGTCATTGATCATATG ?
N

###

Overview of reported PBM binding z-score across a group of sequences:
Test system: LXRa:RXRa (NR concentration 270 nM, RXRa partner concentration 90 nM)
PROTOCOL SUMMARY: PBM binding z-score (relative to random genomic background probes); higher = stronger binding; sequences stand for … in GC…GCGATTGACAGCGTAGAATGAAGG

Observe how each entry below is paired with its result.
                     sequence_content    result
0  CTCGAAAAGTCGGTTGAGGTGAGTATACGGATAA    0.0454
1  ACTAGCAGGCCAAGTTTGGGTCACTCAAACAAAG    0.0719
2  AGAATGAGGTTATAGGTAGATCAGGGAAGAAAGT       2.1
3  ACAGACAGGTGATTGAAGGTAACTCAGCTGGACG  0.000463

For this sequence ( AGAATGAGGTTATACGTAGATCAGGGCAGAAAGT ), measured PBM binding z-score is 1.89

Query CGAACTGGGTCAAGGACAGTGAATCTCCGCACGC yields PBM binding z-score of 1.36
